Cited source: patent US20140213538A1

biological target: LPA1 (Homo sapiens, UniProt Q92633); assay: LPA1 Migration Assay (Oris); settings: read-out: Cell Migration EC50
Sequence (Q92633 whole entry): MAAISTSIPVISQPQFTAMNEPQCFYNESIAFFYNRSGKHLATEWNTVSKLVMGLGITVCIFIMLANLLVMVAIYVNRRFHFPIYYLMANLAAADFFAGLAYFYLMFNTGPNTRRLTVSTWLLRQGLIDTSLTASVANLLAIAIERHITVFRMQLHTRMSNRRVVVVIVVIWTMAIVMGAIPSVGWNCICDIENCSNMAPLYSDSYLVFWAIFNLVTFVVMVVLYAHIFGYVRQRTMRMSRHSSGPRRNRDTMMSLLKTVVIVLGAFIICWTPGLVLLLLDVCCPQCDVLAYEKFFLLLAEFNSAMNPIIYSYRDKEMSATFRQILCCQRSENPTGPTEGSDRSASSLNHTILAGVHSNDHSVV
Readout label: EC50

// solved cases for EC50 follow
Compound	EC50
C[C@@H](OC(=O)Nc1c(-c2cc3sc(-c4cc(Cl)c(C5(C(=O)O)CC5)cc4F)cc3s2)nnn1C)c1ccccc1	50 to 500 nM
Cc1cc(C2(C(=O)O)CC2)ccc1-c1cc2sc(-c3nnn(C)c3NC(=O)O[C@H](C)c3ccccc3)cc2s1	50 to 500 nM
C[C@@H](OC(=O)Nc1c(-c2cc3sc(-c4ccc(CC(=O)O)cc4F)cc3s2)nnn1C)c1ccccc1	> 500 nM

Enquiry: Specify EC50 for C[C@@H](OC(=O)Nc1c(-c2cc3sc(-c4ccc(C5(C(=O)O)CC5)nc4)cc3s2)nnn1C)c1ccccc1 , system LPA1 (Homo sapiens, UniProt Q92633).
Return: 50 to 500 nM

Enquiry: Report value only: EC50, LPA1 (Homo sapiens, UniProt Q92633), Cc1nsc(-c2ccc(-c3cc(F)c(Oc4ncccc4C(=O)O)c(F)c3)cc2)c1NC(=O)O[C@H](C)c1ccccc1
Return: < 50 nM

Enquiry: Under LPA1 (Homo sapiens, UniProt Q92633), report EC50 for C[C@@H](OC(=O)Nc1c(-c2ccc(-c3ccc(Oc4ccccc4C(=O)O)cc3)cc2)nnn1C)c1ccccc1
Return: < 50 nM

Enquiry: Provide LPA1 (Homo sapiens, UniProt Q92633) EC50 reading for Cc1noc(-c2ccc(-c3ccc4c(c3)NC(=O)CC4C(=O)O)cc2)c1NC(=O)O[C@H](C)c1ccccc1 (stereo partly drawn) .
Return: > 500 nM

Enquiry: Supply EC50 measured with LPA1 (Homo sapiens, UniProt Q92633) for C[C@@H](OC(=O)Nc1c(-c2cc3sc(-c4ccc(CC(=O)O)cc4F)cc3s2)cnn1C)c1ccccc1 .
Return: > 500 nM

Enquiry: Report EC50 on LPA1 (Homo sapiens, UniProt Q92633) for this entry: Cc1noc(-c2ccc(-c3ccc(C4(C(=O)O)CCC4)cc3)cc2)c1NC(=O)O[C@H](C)c1ccccc1
Return: < 50 nM

Enquiry: Using LPA1 (Homo sapiens, UniProt Q92633) as the test system, report measured EC50 of C[C@@H](OC(=O)Nc1c(-c2cc3sc(-c4cc(F)c(C5(C(=O)O)CC5)cc4F)cc3s2)cnn1C)c1ccccc1 .
Return: 50 to 500 nM

Enquiry: Look up and report EC50, with LPA1 (Homo sapiens, UniProt Q92633) as system, for Cc1noc(-c2ccc(-c3cc(F)c(Oc4ccccc4C(=O)O)c(F)c3)cc2)c1NC(=O)O[C@H](C)c1ccccc1
Return: < 50 nM

Enquiry: Report EC50 from LPA1 (Homo sapiens, UniProt Q92633) testing of Cc1noc(-c2ccc(C#Cc3ccccc3C(=O)O)cc2)c1NC(=O)O[C@H](C)c1ccccc1
Return: > 500 nM

Enquiry: With LPA1 (Homo sapiens, UniProt Q92633) as the test system, provide measured EC50 for this compound: C[C@@H](OC(=O)Nc1c(-c2ccc(-c3ccc(CC(=O)O)s3)cc2)nnn1C)c1ccccc1
Return: > 500 nM

Enquiry: Provide EC50, recorded with LPA1 (Homo sapiens, UniProt Q92633), of C[C@@H](OC(=O)Nc1c(-c2cc3sc(-c4ccc(Oc5ccccc5C(=O)O)cc4)cc3s2)cnn1C)c1ccccc1
Return: 50 to 500 nM

Enquiry: Report EC50 on LPA1 (Homo sapiens, UniProt Q92633) for this entry: C[C@@H](OC(=O)Nc1c(-c2cc3sc(-c4ccc(CC(=O)O)s4)cc3s2)cnn1C)c1ccccc1
Return: > 500 nM

---

target: UniProt:Q92633; experiment: LPA1 Migration Assay (Oris); conditions: read-out: Cell Migration EC50
Readout label: EC50

Compound	Value measured
C[C@@H](OC(=O)Nc1c(-c2ccc(-c3ccc(OC4(C(=O)O)CC4)c(F)c3)cc2)oc2ccccc12)c1ccccc1 [IT492]	> 500 nM
Cc1noc(-c2ccc(-c3ccc(OC4(C(=O)O)CC4)cc3)cc2)c1NC(=O)O[C@H](C)c1ccccc1 [IT197]	< 50 nM
C[C@@H](OC(=O)Nc1c(-c2cc3sc(-c4cc(Cl)c(CC(=O)O)cc4F)cc3s2)nnn1C)c1ccccc1 [IT186]	> 500 nM
CCOC(=O)C1(c2cc3sc(C#Cc4cnn(C)c4NC(=O)O[C@H](C)c4ccccc4)cc3s2)CC1 [IT085]	> 500 nM
Cc1noc(-c2ccc(-c3ccc(Oc4nc5ccccc5cc4C(=O)O)cc3)cc2)c1NC(=O)O[C@H](C)c1ccccc1 [IT482]	50 to 500 nM
C[C@@H](OC(=O)Nc1c(-c2cc(F)c(-c3ccc(C4(C(=O)O)CC4)cc3)cc2F)oc2ncccc12)c1ccccc1 [IT096]	50 to 500 nM
Cc1noc(-c2ccc(-c3ccc(Oc4ccccc4C(=O)O)nc3)cc2)c1NC(=O)O[C@H](C)c1ccccc1 [IT345]	50 to 500 nM
Cc1noc(-c2ccc(-c3ccc(Oc4ccccc4C(=O)O)cc3)cc2)c1NC(=O)O[C@H](C)c1ccccc1 [IT155]	< 50 nM
Cc1noc(-c2cc(F)c(-c3ccc(Oc4ccccc4C(=O)O)cc3)cc2F)c1NC(=O)O[C@H](C)c1ccccc1 [IT315]	< 50 nM
C[C@@H](OC(=O)Nc1c(-c2cc3sc(-c4ccc(CC(=O)O)cc4)cc3s2)cnn1C)c1ccccc1 [IT132]	> 500 nM

Enquiry: Please give the documented EC50 of C[C@@H](OC(=O)Nc1c(-c2cc3sc(-c4ccc(CC(=O)O)cc4N)cc3s2)nnn1C)c1ccccc1 [IT181]
Return: > 500 nM

---

target: UniProt:Q92633; experiment: Ca Flux LPA1 assay
Listing of entries alongside the reported IC50.

Example results:
Mol smiles	Tgt	IC50
Cc1noc(-c2ccc(-c3ccc(OC(F)(F)C(=O)O)cc3)cc2)c1NC(=O)O[C@H](C)c1ccccc1	UniProt:Q92633	50 to 500 nM
Cc1noc(-c2ccc(-c3ccc(C4(C(=O)O)CCC4)cc3)cc2)c1NC(=O)O[C@H](C)c1ccccc1	UniProt:Q92633	50 to 500 nM
Cc1noc(-c2ccc(-c3ccc(S(C)(=O)=O)cc3)cc2)c1NC(=O)O[C@H](C)c1ccccc1	UniProt:Q92633	> 500 nM

We next turn to a different compound, shown below.
Enquiry: Supply reported IC50 belonging to this compound: C[C@@H](OC(=O)Nc1c(-c2ccc(-c3cc(F)c(Oc4ccncc4C(=O)O)c(F)c3)cc2)cnn1C)c1ccccc1
Return: 50 to 500 nM

---

Measured pIC50 by item
target: LPA1 (Homo sapiens, UniProt Q92633); assay: Ca Flux LPA1 assay
pIC50: −log10 of the molar value.

Study these solved cases before continuing.
Mol smiles	pIC50
Cc1noc(-c2ccc(-c3cc(F)c(Oc4ccncc4C(=O)O)c(F)c3)cc2)c1NC(=O)O[C@H](C)c1ccccc1	> 7.30
C[C@@H](OC(=O)Nc1c(-c2ccc(-c3cc(F)c(Oc4ccccc4C(=O)O)c(F)c3)cc2)cnn1C)c1ccccc1	> 7.30
C[C@@H](OC(=O)Nc1c(-c2cc(F)c(-c3cc4sc(C5(C(=O)O)CC5)cc4s3)cc2F)cnn1C)c1ccccc1	< 6.30
C[C@@H](OC(=O)Nc1c(C#Cc2sc3cc(C4(C(=O)O)CC4)sc3c2C(F)(F)F)cnn1C)c1ccccc1	> 7.30
C[C@@H](OC(=O)Nc1sncc1C#Cc1cc2sc(C3(C(=O)O)CC3)cc2s1)c1ccccc1	< 6.30
Cc1noc(-c2ccc(-c3cc(F)c(Oc4nccnc4C(=O)O)c(F)c3)cc2)c1NC(=O)O[C@H](C)c1ccccc1	> 7.30

For the next question, use this molecule.
Enquiry: Quick one: give measured pIC50 for Cc1noc(-c2ccc(-c3cc(F)c(C4(C(=O)O)CC4)c(F)c3)cc2)c1NC(=O)O[C@H](C)c1ccccc1
Return: > 7.30

---

molecular target: LPA/S1P GPCR of interest (Homo sapiens, UniProt Q92633); assay: Beta-Arrestin based assay (PathHunter)
Sequence (Q92633 whole entry): as above
pEC50: −log10 of the molar value.
Readout label: pEC50

Record excerpt, results attached:
Mol smiles	pEC50
Cc1noc(-c2cc(F)c(-c3cc(F)c(Oc4ncccc4C(=O)O)c(F)c3)cc2F)c1NC(=O)O[C@H](C)c1ccccc1	> 7.30
Cc1noc(-c2ccc(-c3ccc(Oc4ccncc4C(=O)O)cc3)cc2)c1NC(=O)O[C@H](C)c1ccccc1	> 7.30

Enquiry: Supply recorded pEC50 for COc1cc(C2(C(=O)O)CC2)c(OC)cc1-c1cc2sc(-c3snc(C)c3NC(=O)O[C@H](C)c3ccccc3)cc2s1 here.
Return: < 6.30

Enquiry: Quick one: give measured pEC50 for C[C@@H](OC(=O)Nc1c(-c2cc3sc(-c4ccc(CC(=O)O)cc4F)cc3s2)cnn1C)c1ccccc1
Return: 6.30 to 7.30

Enquiry: Give the value of pEC50 reported for the following: Cc1noc(-c2ccc(-c3ccc(S(=O)(=O)N4CCCC4)cc3)cc2)c1NC(=O)O[C@H](C)c1ccccc1
Return: < 6.30

Enquiry: Give recorded pEC50. COc1cc(C2(C(=O)O)CC2)c(OC)cc1-c1cc2sc(-c3nnn(C)c3NC(=O)O[C@H](C)c3ccccc3)cc2s1
Return: < 6.30

Enquiry: Using the record for C[C@@H](OC(=O)Nc1c(C#Cc2cc(F)c(OC3(C(=O)O)CC3)c(F)c2)cnn1C)c1ccccc1 , state its measured pEC50.
Return: 6.30 to 7.30
